Where these numbers come from: a melting point compilation (Tetko et al.; mined from patent text by program, amines drawn as free bases though some values may be those of a salt)

Readings of melting point for the listed compounds
Assay metric: melting point

Compound | Val
O=Cc1cc2ccsc2s1 | 43 to 45 °C
Nc1nc(-c2ccc([N+](=O)[O-])o2)ns1 | 168 to 170 °C
FC(F)c1nc2ccccc2n1-c1nc(Nc2cnc3ccccc3c2)nc(N2CCOCC2)n1 | 270 to 273 °C
CC(C)(C)OC(=O)N[C@@H]1CCC[C@@H]1O (relative stereo) | 64 to 65 °C
CC(=O)OC1C(Oc2cccc(O)c2C(=O)CCc2ccc3occc3c2)OC(CO)C(O)C1O (stereo not drawn) | 152 to 156 °C
CCOP(=O)(OCC)C(CSC(OC(C)=O)OC(=O)N1CCN(c2cc3c(cc2F)c(=O)c(C(=O)O)cn3CC)CC1)P(=O)(OCC)OCC (stereo not drawn) | 89 to 90 °C
CN(C)C1CCN(c2nccc(Oc3ccc(NC(=O)c4cc(F)cc(N5CCOCC5)c4)c4ccccc34)n2)C1 (stereo not drawn) | 106 to 108 °C
CC(C)CC=CC(C)C1CCC2C3=CC=C4CC(O)CCC4(C)C3CCC21C (stereo not drawn) | 120 to 122 °C
COC(C(=O)Nc1cc(Cl)cc(Cl)c1)C(=O)OC(C)(C)C (stereo not drawn) | 130 to 132 °C
C=C(C)C(=O)Oc1ccc(N(C)S(C)(=O)=O)cc1 | 126 to 127 °C
COc1ccc(C(=O)C2CCN(C(C)=O)CC2)c(OC)c1 | 132 to 134 °C
COC(=O)C=Cc1cccc2cc[nH]c12 | 85 to 86 °C
Cc1noc(C)c1NCC#CI | 139 to 140 °C
CCOC1CCC(=O)N1S(=O)(=O)c1ccc(N)cc1 (stereo not drawn) | 185 to 186 °C
O=C(O)Cc1ccc(C(NC(=O)c2ccccc2)C(=O)O)cc1 (stereo not drawn) | 180 to 220 °C
COc1c(Cl)ccc(-c2cc(N)c(Cl)c(C(=O)NOCc3ccccc3)n2)c1F | 166 to 169 °C
O=C(NC(=O)c1ccccc1Cl)Nc1cc(C(F)(F)F)c(Br)cc1Br | 191 °C
CN(C)c1nn(-c2cc(F)c(C#N)cc2F)c(=O)n1C(F)F | 188 to 190 °C

---

Readings of melting point for the listed compounds
Assay metric: melting point

Compound | Assay metric | Val
COc1cc(OC)c2cc(-c3cc(OC)c(OC)c(OC)c3)oc2c1 | melting point | 131 to 132 °C
CCCc1c(OCCCOc2ccc(-c3csc(=S)[nH]3)c(OC)c2CCC)ccc2c1OC(C(=O)O)CC2 (configuration not stated) | melting point | 149 to 151 °C
COc1cc2cc(C3=NNC(=O)CC3C)sc2cc1OC (configuration not stated) | melting point | 204 to 206 °C
COc1cccc(Oc2cccc(-c3c(O)c4ccc(Cl)cc4[nH]c3=O)c2)c1 | melting point | 268 to 270 °C
CCCCc1cn(-c2c(C)cccc2Cl)c(=O)n1Cc1ccc(-c2ccccc2-c2nnn[nH]2)cc1 | melting point | 163 to 164 °C
CS(=O)(=O)c1ccc(C(=O)c2cc(-c3ccc(Cl)cc3)c(N3CCOCC3)s2)cc1 | melting point | 242 to 243 °C
CCCc1ccc(CCc2ccc(-c3ccc(F)cc3)cc2)cc1 | melting point | 97 °C
COC(=O)c1cc(C(=O)N2CCCC(=O)C2)c2cc(Cc3ccc(F)cc3)cnc2c1O | melting point | 228 to 229 °C
Cc1ccc(OC(=O)N=C2NC(c3ccc(C)cc3)=NC2(C(F)(F)F)C(F)(F)F)cc1 | melting point | 161 to 163 °C
COC(=O)CCc1ccc(OCCC2Oc3ccccc3N(Cc3cccc(Cl)c3)C2=O)cc1 (configuration not stated) | melting point | 88 to 89 °C
N#CSC1=Nc2ccccc2Sc2nccn21 | melting point | 111 to 113 °C
COC(=O)c1cc(O)cc(-c2ccccc2)c1 | melting point | 108 to 110 °C
CCOc1nn(-c2ccc(C(F)(F)F)cn2)cc1CCCOc1cccc(CC(=O)O)c1F | melting point | 120 to 121 °C
CCOC(=O)C1=C(C)NC(CSCCl)=C(C(=O)OCC)C1c1cccc([N+](=O)[O-])c1 (configuration not stated) | melting point | 157 to 159 °C
O=C(c1ccccc1)C(O)c1ccc(F)cc1 (configuration not stated) | melting point | 108 to 109 °C
O=C1NCCC[C@@H]1NS(=O)(=O)c1cc(F)ccc1F | melting point | 183 to 185 °C
O=C(O)c1[nH]c(=O)n2c1CN=C(c1ccccc1Cl)c1cc(Cl)ccc1-2 | melting point | 236 to 238 °C
CCc1c(-c2ccccc2)nn(C)c1-c1ccccc1 | melting point | 80 to 81 °C
CCCOc1ncc(S(C)(=O)=O)cc1-c1nc2c(CC)nn(C[C@@H]3CCCN3C)c2c(=O)[nH]1 | melting point | 182 to 183 °C
O=C(c1ccccc1)c1ccc(NC(=O)C(O)(C(F)(F)F)C(F)(F)F)cc1 | melting point | 143 to 146 °C
CCc1noc(C)c1-c1[nH]c2ccccc2c1CC(N)=O | melting point | 194 to 195 °C
CCOC(=O)C(Oc1ccc(Cl)cc1)C(=O)OCC | melting point | 43.5 to 45 °C
O=C(NC[C@@H](C(=O)NO)N1CCCCC1)c1ccc(OCc2cc(Cl)nc(Cl)c2)cc1 | melting point | 145 °C
O=C1c2cccc(N3CCCC3)c2OC12CC2 | melting point | 102 °C
CC(C)(C)c1ccc2c(c1)Cc1cc(C(C)(C)C)ccc1-2 | melting point | 120 to 121 °C
C#Cc1cccc(Nc2ncnc3cnc(NC(=O)/C=C/CN(C)C)cc23)c1 | melting point | 163 to 166 °C
O=C(O)c1ccc(/C=C/c2ccccc2-c2cccs2)cc1 | melting point | 208 to 210 °C
